The measurements presented in this section are drawn from patent US20030068675.

SYSTEM: T1, ZFP SBS#628 (synthetic)
T1 chain: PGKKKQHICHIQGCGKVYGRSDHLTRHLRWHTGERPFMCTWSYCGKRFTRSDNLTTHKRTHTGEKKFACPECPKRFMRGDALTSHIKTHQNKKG
METHOD_NOTES: EMSA
CONDITION_NOTES: tags: MBP fusion
METRIC: pKd
Please keep in mind that pKd is minus log10 of the molar concentration; only the number is needed.

Fill blank: measured pKd of the binder TTGTAGGGGA (dsDNA) DNA 1: TTGTAGGGGA DNA 2: TCCCCTACAA is ____.
6.89
